Assay: Drug distribution in Wistar rat adipose tissue 10 mg/kg, po and measured at 2 hrs post dose by LC-MS/MS analysis
Format: ADME, organism-based
Settings: read-out: Ct
Attribute measured: concentration at 2 h (nM)
Please respond with the number in nM and leave the unit unwritten.

Answer with reported concentration at 2 h of O=C(Nc1ccc(N2CCC3(CC2)CC(C(=O)O)C3)nc1)c1nnc(Nc2ccc(F)c(F)c2)o1
2500

====

Assay: Drug distribution in C57BL/6 mouse adipose tissue 10 mg/kg, po and measured at 2 hrs post dose by LC-MS/MS analysis
Type: ADME, organism-based
Conditions: read-out: Ct
Quick reference: concentration at 2 h of the listed items.
Please respond with the number in nM and leave the unit unwritten.

The following compounds have reported results that may help.
O=C(Nc1ccc(C2CCC3(CC2)CC(C(=O)O)C3)cc1)c1nnc(Nc2ccc(F)c(F)c2)o1 (centres undefined); 350
O=C(O)CC1CCC2(CC1)CCN(c1ccc(NC(=O)c3nnc(Nc4ccc(F)c(F)c4)o3)cn1)CC2; 150

Answer with reported concentration at 2 h of O=C(O)CC1CCC2(CC1)CCC(c1ccc(NC(=O)c3nnc(Nc4ccc(F)c(F)c4)o3)cn1)CC2 (centres undefined)
470

Answer with reported concentration at 2 h of O=C(Nc1ccc(N2CCC3(CC2)CC(C(=O)O)C3)nc1)c1nnc(Nc2ccc(F)c(F)c2)o1
140

Measured values drawn from ChEMBL document CHEMBL5143597 for this set.
